biological target: Heat shock protein HSP 90-alpha (Homo sapiens, UniProt P07900); assay: Inhibition of fluorescein isothiocyanate labeled geldanamycin binding to recombinant Hsp90alpha (unknown origin) after 1 hr by fluorescence polarization assay
pIC50: −log10 of the molar value.

- Molecule: "CC(C)c1cc(-c2onc(C(=O)N[C@@H](C(=O)N3CCN(C)CC3)C(C)C)c2-c2ccc(CN3CCOCC3)cc2)c(O)cc1O"
  Value comparator: "="
  pIC50: 6.37
- Molecule: "COC(=O)[C@@H](Cc1ccccc1)NC(=O)c1cnc(N2CCN(C(=O)c3noc(-c4cc(C(C)C)c(O)cc4O)c3-c3ccc(CN4CCOCC4)cc3)CC2)nc1"
  Value comparator: "<"
  pIC50: 6.00
- Molecule: "COC(=O)[C@H](NC(=O)[C@H](NC(=O)C(NC(=O)c1noc(-c2cc(C(C)C)c(O)cc2O)c1-c1ccc(CN2CCOCC2)cc1)C(C)C)C(C)C)C(C)C (single isomer, unassigned)"
  Value comparator: "="
  pIC50: 6.59
- Molecule: "COC(=O)[C@H](CCCCNC(=O)OCc1ccccc1)NC(=O)c1noc(-c2cc(C(C)C)c(O)cc2O)c1-c1ccc(CN2CCOCC2)cc1"
  Value comparator: "="
  pIC50: 6.29
- Molecule: "COC(=O)[C@H](NC(=O)c1cnc(N2CCC(CNC(=O)c3noc(-c4cc(C(C)C)c(O)cc4O)c3-c3ccc(CN4CCOCC4)cc3)CC2)nc1)C(C)C"
  Value comparator: "="
  pIC50: 6.39
- Molecule: "CNC(=O)[C@H](NC(=O)c1noc(-c2cc(C(C)C)c(O)cc2O)c1-c1ccc(CN2CCOCC2)cc1)C(C)C"
  Value comparator: "="
  pIC50: 7.68
